# Test system: receptor labeled by the radioiodinated analogue of 1 (4, [125I]-YLFQPQRF-NH2); neuropeptide FF receptor
# TEST PROTOCOL: Competitive radioligand binding against 4 ([125I]Y8F-amide)
# DETAILS: mixture-based positional scanning; difference from averaged radioligand displacement of whole library (0); about 80 a.u. = 10-fold change in Ki
Square brackets hold non-standard residues; d marks the D form. Peptide text beside a SMILES is read from it. * marks the point of attachment. ξ: configuration not given here. Dansyl = CN(C)c1cccc2c(S(=O)(=O)*)cccc12; ξL = CC(C)CC(N)C(=O)O
REPORTED METRIC: Relative Binding Index (RBI) (a.u.)
Value expressed in a.u.; do not type the unit.

{"columns": ["COMPOUND", "Relative Binding Index (RBI) (a.u.)"],
 "data": [
  ["CN(C)c1cccc2c(S(=O)(=O)N[C@@H](CC(=O)O)C(=O)N3CCC[C@H]3C(=O)N[C@@H](CCCNC(=N)N)C(N)=O)cccc12 [Dansyl-DPR-amide] (Dansyl-Asp-Pro-Arg-NH2)", "−2"]
]}

# input compound: CN(C)c1cccc2c(S(=O)(=O)N[C@@H](Cc3c[nH]cn3)C(=O)N[C@@H](CCC(=O)O)C(=O)N[C@@H](CCCNC(=N)N)C(N)=O)cccc12 [Dansyl-HER-amide] (Dansyl-His-Glu-Arg-NH2) ; wanted: its Relative Binding Index (RBI)
17

# input compound: CN(C)c1cccc2c(S(=O)(=O)N[C@@H](CCC(=O)O)C(=O)N[C@@H](CO)C(=O)N[C@@H](CCCNC(=N)N)C(N)=O)cccc12 [Dansyl-ESR-amide] (Dansyl-Glu-Ser-Arg-NH2) ; wanted: its Relative Binding Index (RBI)
37

# input compound: CC(C)C[C@H](NS(=O)(=O)c1cccc2c(N(C)C)cccc12)C(=O)N[C@@H](Cc1ccccc1)C(=O)N[C@@H](CCCNC(=N)N)C(N)=O [Dansyl-LFR-amide] (Dansyl-Leu-Phe-Arg-NH2) ; wanted: its Relative Binding Index (RBI)
−33

# input compound: CC(C)CC(NC(=O)[C@H](CCCCN)NS(=O)(=O)c1cccc2c(N(C)C)cccc12)C(=O)N[C@@H](CCCNC(=N)N)C(N)=O (stereo partly drawn) [Dansyl-KLR-amide] (Dansyl-Lys-[ξL]-Arg-NH2) ; wanted: its Relative Binding Index (RBI)
16

# input compound: CN(C)c1cccc2c(S(=O)(=O)N[C@@H](CCCCN)C(=O)N[C@@H](CO)C(=O)N[C@@H](CCCNC(=N)N)C(N)=O)cccc12 [Dansyl-KSR-amide] (Dansyl-Lys-Ser-Arg-NH2) ; wanted: its Relative Binding Index (RBI)
45

# input compound: CSCC[C@H](NS(=O)(=O)c1cccc2c(N(C)C)cccc12)C(=O)N[C@@H](CC(=O)O)C(=O)N[C@@H](CCCNC(=N)N)C(N)=O [Dansyl-MDR-amide] (Dansyl-Met-Asp-Arg-NH2) ; wanted: its Relative Binding Index (RBI)
−62

# input compound: CC(C)[C@H](NS(=O)(=O)c1cccc2c(N(C)C)cccc12)C(=O)N[C@@H](Cc1ccccc1)C(=O)N[C@@H](CCCNC(=N)N)C(N)=O [Dansyl-VFR-amide] (Dansyl-Val-Phe-Arg-NH2) ; wanted: its Relative Binding Index (RBI)
−6

# input compound: CSCC[C@H](NC(=O)[C@H](Cc1ccccc1)NS(=O)(=O)c1cccc2c(N(C)C)cccc12)C(=O)N[C@@H](CCCNC(=N)N)C(N)=O [Dansyl-FMR-amide] (Dansyl-Phe-Met-Arg-NH2) ; wanted: its Relative Binding Index (RBI)
9
